I'd be grateful if you could share measured growth for these entries.
# System: NCI-H322M lung
# protocol description: NCI-60 one-dose screen, 48 h (100 = growth as untreated, 0 = no growth, -100 = all killed)
# experimental conditions: 10 µM unless noted
Compounds without any hit were thinned out: in the full panel of roughly 83,000, 20% have a hit.
Lab book: enter the figure in %, no units written.

Ask | What value of measured growth is listed for COc1cc(OC)c(/C=C/C(=O)c2c(O)cc(OC)c(C3CCN(C)CC3)c2OC)c(OC)c1 ?
Reply | -15.8

Ask | Value lookup for growth; key = COc1cc(C(=O)c2c(-c3ccccc3)oc3c(OC)cccc23)cc(OC)c1OC
Reply | 46.2

Ask | Any idea what its growth is? The molecule is COc1ccc(/C(C)=C(/c2ccc(OCCCN(C)C)cc2)c2ccc(OC(=O)c3ccccc3)cc2)cc1
Reply | 87

Ask | // growth lookup, key: CS(=O)(=O)c1ccc(NC(=O)c2ccccc2)nc1
Reply | 111

Ask | # input molecule: C#CC#CC#CC#CC#CC#CC#CC#CCC1OC[C@H](COC(=O)O[C@@H](C(=O)O[C@H]2C[C@@]3(O)[C@@H](OC(=O)c4ccccc4)[C@@H]4[C@]5(OC(C)=O)CO[C@@H]5C[C@H](O)[C@@]4(C)C(=O)[C@H](OC(C)=O)C(=C2C)C3(C)C)[C@@H](NC(=O)c2ccccc2)c2ccccc2)O1 (some centres not stated) ; wanted: its growth
Reply | 31.6

Ask | Name the reported growth value associated with the molecule CCN1CCN(CCNc2nccc(-c3c(-c4ccc(F)c(OC)c4)nc4sccn34)n2)S1(=O)=O
Reply | 83.4

Ask | Give the measured growth of CCN1C(=O)N(CC)C2C1N=C(SCc1ccc(Cl)cc1)N2/N=C/C=C/c1ccccc1OC (configuration not stated) .
Reply | 97.1

Ask | Dear colleague, I am looking for the recorded growth of the following molecule: NS(=O)(=O)c1ccc(NC(=O)/C(=C\c2ccc(Cl)cc2Cl)NC(=O)c2ccccc2)cc1
Reply | 102

Ask | Sample COc1ccc(/C=C/C(c2cc(OC)c(OC)c(OC)c2)n2cncn2)cc1 (configuration not stated) — what was its growth?
Reply | 61.2

Ask | May I ask what growth has been recorded for CCCC(CC)(C(=O)Nc1ccc2nc(C)cc(N)c2c1)C(=O)Nc1ccc2nc(C)cc(N)c2c1 ?
Reply | 108

Ask | Record request: growth value, item O=C1Nc2ccccc2/C1=C\c1c[nH]c2ccc(Br)cc12
Reply | 64.2

Ask | Consider the molecule shown here: CC(=O)c1ccc(Nc2nccc(-c3ccc4ccccc4c3)n2)cc1 What is its recorded growth?
Reply | 97.8

Ask | Reported growth, molecule Nc1[nH]c(=S)nc2oc(-c3ccccc3)c(-c3ccccc3)c12 : ____
Reply | 105

Ask | Which growth reading was recorded for the molecule O=C(Nc1ncc(Cc2cc(C(F)(F)F)ccc2Cl)s1)c1cccs1 ?
Reply | 65.5

Ask | What growth value was documented for this molecule, CC1=C(C(=O)Nc2nc(-c3ccc(Cl)cc3)cs2)[C@H](c2ccc(O)cc2)NC(=O)N1 ?
Reply | 88.3

Ask | Quick check: growth of Cc1ccc(-c2nc(SCc3nc4cc(Cl)c(Cl)cc4[nH]3)[nH]c(=O)c2C#N)cc1 ?
Reply | 101

Ask | Quick check: growth of CSc1nc(C)c([N+](=O)[O-])c(N)n1 ?
Reply | 93.7

Ask | // query growth value for entry Cc1nn(-c2cc(NC3CCC(O)CC3)c3c(=O)[nH]c(CCC(F)(F)F)cc3c2)c2c1C(=O)CC(C)(C)C2 (configuration not stated)
Reply | 56.5

Ask | So what does the record say about growth for Cn1cc(-c2ccc(-c3cn(C)c4ccc(Cl)cc34)[nH]2)c2cc(Cl)ccc21 ?
Reply | 41.4

Ask | What value of growth has been recorded for this entry: COc1ccc(/C=C/C(=O)c2cc(OC)c(OC)c(OC)c2)cc1OCC(=O)Nc1nc2ccc(OC(F)(F)F)cc2s1
Reply | 4.88

Ask | Endpoint output: growth of CC1=C2[C@@H](CC1)[C@]1(C)O[C@@](c3ccccc3)(C[C@H]1OC(=O)CO)[C@H]2OC(=O)/C=C/c1ccccc1 . Value?
Reply | 101

Ask | Param item = O=C1/C(=C/c2ccc(O)c(O)c2)COc2ccc(-c3ccccc3)cc21 ; retrieve measured growth.
Reply | 54.8

Ask | Give the measured growth of CN1C(=O)/C(=C/c2ccc(C(=O)Nc3ncc(Cc4cccc(Cl)c4)s3)cc2)SC1=S .
Reply | 76.2

Ask | Name the recorded growth for O=C1/C(=C/c2ccc(F)cc2)CN(C(=O)C(Cl)Cl)C/C1=C\c1ccc(F)cc1 .
Reply | -63

Ask | Bench note: what growth did Oc1c(CN2CCC(N3CCCCC3)CC2)cc(Cc2cc(CN3CCC(N4CCCCC4)CC3)c(O)c3ncccc23)c2cccnc12 show?
Reply | 19.7

Ask | Name the recorded growth for O=C1Nc2ccccc2/C1=C/c1cccn1C(=O)c1ccc(Cl)s1 .
Reply | 50.4

Ask | What measured growth goes with COc1ccc2nc(Cl)c(/C=C3\CC(c4ccccc4)=NN(c4ccccc4)C3=O)cc2c1 ?
Reply | 74.6

Ask | Could you share which growth value was measured for Cc1ccc(/C=C/C(=O)c2cccc(OCCCOc3cccc(C(=O)/C=C/c4ccc(C)cc4)c3)c2)cc1 ?
Reply | 85.1

Ask | I would be grateful if you could share the reported growth for O=c1cc(-c2ccccc2)[nH]c2ncc(-c3ccc(F)cc3)n12 .
Reply | 94.2

Ask | Which growth is listed for CCN(CC)CCCN1C(=O)c2c(c(C)c3c(oc4ccc(OC)cc43)c2C)C1=O ?
Reply | 102

Ask | What value of growth has been reported for the following molecule? O=C(/C=C(O)/C=C/c1cccc2[nH]ccc12)/C=C/c1cccc2[nH]ccc12
Reply | 98.9

Ask | Fill in: growth of O=C(NNC(=O)c1ccc(NC(=O)c2ccccn2)cc1)Nc1ccc2ccccc2c1 is ___
Reply | 103

Ask | Could you tell me which growth is on file for COC(=O)c1cc(Br)ccc1O ?
Reply | 105

Ask | Item O=C1c2ccccc2C(=O)c2c1c(C(=O)NCc1ccccc1)c1ccccn21 has what recorded growth?
Reply | 99.4

Ask | Can you look up the measured growth of COC1=C(C)C(=O)N2[C@@H]1[C@H](c1ccccc1)OC21C=CC(=O)C=C1 for me?
Reply | 81.8

Ask | Consider the molecule shown here: C=CC(=O)Nc1ccc(Nc2nccc(-c3ccc(N4CCCC4)c(C#N)c3)n2)cc1 What is its recorded growth?
Reply | 41.2

Ask | So what does the record say about growth for Nc1nc2c(c3ncccc13)C(c1cccc(Cl)c1)Cc1ncccc1-2 (configuration not stated) ?
Reply | 49.7
